Target: IL-6 (interleukin-6) (human, UniProt P05231 30-212)
Sequence (P05231 30-212): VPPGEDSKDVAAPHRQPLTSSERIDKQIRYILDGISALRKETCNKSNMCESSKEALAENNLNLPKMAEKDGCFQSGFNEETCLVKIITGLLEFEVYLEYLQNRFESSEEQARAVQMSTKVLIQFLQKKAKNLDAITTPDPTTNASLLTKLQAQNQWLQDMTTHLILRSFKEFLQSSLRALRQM
Assay: pull-down, real-time PCR; smaller Kd than CIL-6A; value only in figure; 1x PBSMT pH 7.2: 137 mM NaCl, 2.68 mM KCl, 8.1 mM Na2HPO4, 1.76 mM KH2PO4, 1 mM MgCl2, 0.025% Tween-20; pull-down 1 h (room temperature in SELEX); MST at 25 C
Details: protein: commercial; circular; two putative antiparallel G4 motifs
measured metric: Kd

Enquiry: # Kd lookup, item CIL-6A6-1 (structured_DNA, circular) DNA: ATCTCGACTAGTCAGTGGTGGATATGGGGAGGCTGTGGTGAGGGTATGGTTGTCTCGGATTGGTTGTCTCGGAT
Return: < 8.5 nM

The reported measurements were obtained from paper PMC11323322.
